# Test system: Trichophyton rubrum (ATCC-28188)
# testProtocol: Checkerboard assay of fatty acid/ester with antifungals on Trichophyton rubrum (ATCC 28188)
# Format: cell-based
# appliedConditions: agent's MIC in combination antifungal + glyceryl monocaprylate (partner: other agent of same combination no.)
readoutLabel: Combination MIC (µg/mL)

compound	readoutUnit	recordedValue
Cc1cc(CC(C)CC(C)(C)C)n(O)c(=O)c1.NCCO (stereo not shown)	µg/mL	2

P: Cc1cc(C2CCCCC2)n(O)c(=O)c1
Q: CCC(C)n1ncn(-c2ccc(N3CCN(c4ccc(OCC5COC(Cn6cncn6)(c6ccc(Cl)cc6Cl)O5)cc4)CC3)cc2)c1=O (stereo not shown)
// query Lab note: check whether P or Q has the lower measured Combination MIC. Indicate which entry you chose by stating its label.
// result Q
(Q: 0.007 µg/mL, P: 0.03 µg/mL)

a: Clc1ccccc1C(c1ccccc1)(c1ccccc1)n1ccnc1
b: CC(=O)N1CCN(c2ccc(OCC3COC(Cn4ccnc4)(c4ccc(Cl)cc4Cl)O3)cc2)CC1 (stereo not shown)
// query Please state the entry with greater Combination MIC among a and b . Kindly state the label of the option you pick.
// result a

---

Listed here: items and their measured FIC.
# Test system: azole resistant C. albicans MTCC 227
# testProtocol: Checkerboard assay on azole resistant C. albicans MTCC 227
# Assay type: cell-based, Candida albicans
# appliedConditions: combination antifungal + glyceryl monocaprylate
Kindly provide the number alone.

> print(dat)
                                   molecule                            targetdesc  recordedvalue
1  CCCCCCCC(=O)OCC(O)CO (centres unmarked) [Glyceryl monocaprylate]  azole resistant C. albicans MTCC 227           0.25

// query Given the entry CCC(C)n1ncn(-c2ccc(N3CCN(c4ccc(OCC5COC(Cn6cncn6)(c6ccc(Cl)cc6Cl)O5)cc4)CC3)cc2)c1=O (centres unmarked) [Itraconazole] , report its measured FIC.
// result 0.125

// query Now try CC(=O)N1CCN(c2ccc(OCC3COC(Cn4ccnc4)(c4ccc(Cl)cc4Cl)O3)cc2)CC1 (centres unmarked) [Ketoconazole] .
// result 0.0156

// query Same lookup for C=C1CCN([C@H](C)[C@](O)(Cn2cncn2)c2ccc(F)cc2F)CC1 [Efinaconazole] , please.
// result 0.007

// query Cool, now Clc1ccccc1C(c1ccccc1)(c1ccccc1)n1ccnc1 [Clotrimazole]
// result 0.25

---

# Test system: azole resistant C. albicans MTCC 227
# testProtocol: Checkerboard assay on azole resistant C. albicans MTCC 227
# Assay type: cell-based, Candida albicans
# appliedConditions: antifungal in combination with caprylic acid
# Experimental: The synergy is measured by determining the fractional inhibitory concentration (FIC) value of the combination. […] FIC values for both agents in a particular well were calculated in this way followed by determination of the FIC index (sum of the FICs of each drug in the concerned well). […]
Measured FIC index, listed per entry for reference.
Enter a number only.

Solved cases below.
> print(dat)
                                   compound  readoutlabel  recordedvalue
1  C=C1CCN([C@H](C)[C@](O)(Cn2cncn2)c2ccc(F)cc2F)CC1     FIC index            0.3
2    Clc1ccccc1C(c1ccccc1)(c1ccccc1)n1ccnc1     FIC index          0.093
3  CC(=O)N1CCN(c2ccc(OCC3COC(Cn4ccnc4)(c4ccc(Cl)cc4Cl)O3)cc2)CC1 (centres unmarked)     FIC index          0.253
4  N#C/C(=C1/SC[C@@H](c2ccc(Cl)cc2Cl)S1)n1ccnc1     FIC index            0.3

Okay, next one:
// query So what's the measured FIC index for this one? CCC(C)n1ncn(-c2ccc(N3CCN(c4ccc(OCC5COC(Cn6cncn6)(c6ccc(Cl)cc6Cl)O5)cc4)CC3)cc2)c1=O (centres unmarked)
// result 0.25

---

# System: azole resistant C. albicans MTCC 227
# testProtocol: Checkerboard assay on azole resistant C. albicans MTCC 227
# Assay type: cell-based, Candida albicans
# appliedConditions: Candida albicans, MTCC227, agent alone; Table 9, caprylic acid (C8) series
readoutLabel: MIC (µg/mL)

> print(dat)
                                   molecule  recordedvalue
1  N#C/C(=C1/SC[C@@H](c2ccc(Cl)cc2Cl)S1)n1ccnc1              8
2                             CCCCCCCC(=O)O            250
3  CCC(C)n1ncn(-c2ccc(N3CCN(c4ccc(OCC5COC(Cn6cncn6)(c6ccc(Cl)cc6Cl)O5)cc4)CC3)cc2)c1=O (stereo not drawn)             32
4  CC(=O)N1CCN(c2ccc(OCC3COC(Cn4ccnc4)(c4ccc(Cl)cc4Cl)O3)cc2)CC1 (stereo not drawn)             64

a: Clc1ccccc1C(c1ccccc1)(c1ccccc1)n1ccnc1
b: C=C1CCN([C@H](C)[C@](O)(Cn2cncn2)c2ccc(F)cc2F)CC1
// query Between a and b , which one shows the smaller MIC number? Answer by stating the label of the chosen item.
// result a

---

# System: Trichophyton rubrum (ATCC-28188)
# testProtocol: Checkerboard assay of fatty acid/ester with antifungals on Trichophyton rubrum (ATCC 28188)
# Assay type: cell-based
# Parameters: key: FIC index = sum of FICs; FIC = agent conc in well / agent MIC
# appliedConditions: antifungal in combination with propylene glycol monocaprylate
readoutLabel: FIC index
Please reply with the number alone, leaving off any unit.

Record excerpt, results attached:
> print(dat)
                                   compound  readoutlabel  recordedvalue
1  C=C1CCN([C@H](C)[C@](O)(Cn2cncn2)c2ccc(F)cc2F)CC1     FIC index          0.556
2  CC(=O)N1CCN(c2ccc(OCC3COC(Cn4ccnc4)(c4ccc(Cl)cc4Cl)O3)cc2)CC1 (stereo not drawn)     FIC index          0.625

Let's switch to this compound now.
// query Record request: FIC index value, item Cc1cc(C2CCCCC2)n(O)c(=O)c1
// result 0.503
